Values were extracted from patent US6818617.

molecular target: integrin α4β1 on Jurkat cells, P13612; assay: inhibition of cell adhesion: Jurkat cells to immobilized VCAM-1
pIC50: −log10 of the molar value.

binder	pIC50
CKRAMLDGLNDYC (modifications not checked) [cyclic peptide …]	3.00
